# Test system: Pyricularia oryzae
# Type: in vivo
# condition.summary: rice seedlings sprayed to run-off, inoculated the following day; rating relative to controls; unmarked compounds (standard test rate)
value.kind: Test C disease control rating (100 = 100% disease control, 0 = no disease control)

Known Test C disease control rating (100 = 100% disease control, 0 = no disease control) results, listed for orientation:
{"compound": "CCC1(C(=O)NC(C)COc2c(F)cc(F)cc2F)C(C)C1(Cl)Cl (stereo not shown) [compound 237]", "reported.measurement": "53%"}
{"compound": "CCC1(C(=O)NC(C)C=Cc2ccc(F)cc2)C(C)C1(Cl)Cl (mixture of isomers) [compound 261]", "reported.measurement": "100%"}

Dear colleague, could you send me Test C disease control rating (100 = 100% disease control, 0 = no disease control) for each of the items below? Thanks.
1. CC(C)(C)C(C#N)C(=O)NC/C=C/c1cccc(Br)c1 (racemic) [compound 272]
2. C=C(F)C(C)(C)C(C#N)C(=O)NC(C)COc1cc(F)ccc1F (mixture of isomers) [compound 217]

1: 53%; 2: 99%
